- test.target: Steroid C26-monooxygenase (Mycobacterium tuberculosis, UniProt P9WPP1, C429L)
- protocol.summary: Binding affinity to Mycobacterium tuberculosis H37Rv CYP125A1 C429L mutant expressed in Escherichia coli by titration plot analysis
property.measured: Kd (µM)
Give bare numbers, in µM.

query: # get_value(readout='Kd', item= CC1CCC(C(=O)NC(Cc2c[nH]c3ccccc23)C(=O)Nc2ccncc2)CC1 (stereo unspecified) )
result: 1.68
